Test system: Echinochloa crus-galli (ECHCG)
Test: Pre-emergence biological efficacy, glasshouse pot test
Format: in vivo
Conditions: 312 h, 1,000 g/ha, evaluated after 13 days, 100=total damage, 0=no damage, read-out: Percentage damage caused to weed species, pre-emergence, ECHCG
READOUT_NAME: pest or weed control at 1000 g/ha (%)
Answer in %, number only, no unit symbol.

// pest or weed control at 1000 g/ha lookup, key: `COC(=O)c1nc(Cl)cc(NCC2CCCCCCC2)c1Cl`
10

// pest or weed control at 1000 g/ha lookup, key: `COC(=O)c1nc(Cl)cc(NCC2CC2)c1Cl`
90

// pest or weed control at 1000 g/ha lookup, key: `COC(=O)c1nc(Cl)c(F)c(NCc2ccccc2[N+](=O)[O-])c1Br`
70

// pest or weed control at 1000 g/ha lookup, key: `COC(=O)c1nc(Cl)cc(NCc2ccccc2C(F)(F)F)c1Cl`
0

// pest or weed control at 1000 g/ha lookup, key: `C=Cc1c(NCc2ccco2)cc(Cl)nc1C(=O)OC`
90

// pest or weed control at 1000 g/ha lookup, key: `C=Cc1c(NCc2ccccc2)cc(Cl)nc1C(=O)OC`
30

// pest or weed control at 1000 g/ha lookup, key: `C=Cc1c(NCc2cccs2)cc(Cl)nc1C(=O)OC`
60

// pest or weed control at 1000 g/ha lookup, key: `COC(=O)c1nc(Cl)cc(N(CCO)Cc2ccco2)c1Cl`
50

// pest or weed control at 1000 g/ha lookup, key: `C=Cc1c(C(=O)OC)nc(Cl)c(F)c1NCc1ccccc1[N+](=O)[O-]`
90

// pest or weed control at 1000 g/ha lookup, key: `C=Cc1c(NCc2ncccc2C)cc(Cl)nc1C(=O)OC`
80

// pest or weed control at 1000 g/ha lookup, key: `COC(=O)c1nc(Cl)c(Cl)c(NCc2ccccc2[N+](=O)[O-])c1C(F)(F)F`
0

// pest or weed control at 1000 g/ha lookup, key: `COC(=O)c1nc(-c2ccc(Cl)c(N(C)C)c2F)cc(NCc2ccco2)c1Cl`
30

// pest or weed control at 1000 g/ha lookup, key: `CCO/C=C\c1c(NCc2ccco2)cc(-c2ccc(Cl)c(OC)c2F)nc1C(=O)OC`
10

// pest or weed control at 1000 g/ha lookup, key: `COC(=O)c1nc(Cl)c(Cl)c(NCc2ccccc2[N+](=O)[O-])c1C`
0

// pest or weed control at 1000 g/ha lookup, key: `COC(=O)c1nc(Cl)cc(NCc2ccncc2)c1Cl`
20

// pest or weed control at 1000 g/ha lookup, key: `COC(=O)c1nc(Cl)cc(NCc2ccccc2F)c1Cl`
60

// pest or weed control at 1000 g/ha lookup, key: `COC(=O)c1nc(-c2ccc(Cl)c(OC)c2F)cc(NCc2ccco2)c1Cl`
90

// pest or weed control at 1000 g/ha lookup, key: `C=Cc1c(C(=O)OC)nc(Cl)c(Cl)c1NCc1ncccc1Cl`
0

// pest or weed control at 1000 g/ha lookup, key: `COC(=O)c1nc(Cl)cc(NCc2ccccn2)c1Cl`
60

---

Tested on: Echinochloa crus-galli (ECHCG)
Assay: Post-emergence biological efficacy, glasshouse pot test
Format: in vivo
Details: 312 h, 1,000 g/ha, evaluated after 13 days, 100=total damage, 0=no damage, read-out: Percentage damage caused to weed species, post-emergence, ECHCG
Would you mind telling me the reported pest or weed control at 1000 g/ha of each entry?
Answer in %, number only, no unit symbol.

// pest or weed control at 1000 g/ha lookup, key: COC(=O)c1nc(Cl)cc(NCc2ccc(Cl)cc2)c1Cl [Compound 5-2]
50

// pest or weed control at 1000 g/ha lookup, key: C=Cc1c(NCc2ccccc2)cc(Cl)nc1C(=O)OC [Compound 2-12]
50

// pest or weed control at 1000 g/ha lookup, key: COC(=O)c1nc(Cl)cc(NCC2CCCCC2)c1Cl [Compound 67-2]
20

// pest or weed control at 1000 g/ha lookup, key: C=Cc1c(NCc2ccccc2Cl)cc(Cl)nc1C(=O)OC [Compound 3-12]
20

// pest or weed control at 1000 g/ha lookup, key: C=Cc1c(NCc2ccco2)cc(Cl)nc1C(=O)O [Compound 26-11]
80

---

Test system: Solanum nigrum (SOLNI)
Assay: Post-emergence biological efficacy, glasshouse pot test
Format: in vivo
Settings: 312 h, 1,000 g/ha, evaluated after 13 days, 100=total damage, 0=no damage, read-out: Percentage damage caused to weed species, post-emergence, SOLNI
Would you mind telling me the reported pest or weed control at 1000 g/ha of each entry?
Answer in %, number only, no unit symbol.

Short answer please: pest or weed control at 1000 g/ha, Solanum nigrum (SOLNI), entry `COC(=O)c1nc(Cl)cc(NCc2ccccc2[N+](=O)[O-])c1Br`
90

Short answer please: pest or weed control at 1000 g/ha, Solanum nigrum (SOLNI), entry `COC(=O)c1nc(C2CC2)cc(NCc2ccco2)c1Cl`
90

Short answer please: pest or weed control at 1000 g/ha, Solanum nigrum (SOLNI), entry `COC(=O)c1nc(Cl)c(F)c(NCc2ccccc2[N+](=O)[O-])c1C`
100

---

System: Echinochloa crus-galli (ECHCG)
Assay: Pre-emergence biological efficacy, glasshouse pot test
Format: in vivo
Conditions: 312 h, 1,000 g/ha, evaluated after 13 days, 100=total damage, 0=no damage, read-out: Percentage damage caused to weed species, pre-emergence, ECHCG
Would you mind telling me the reported pest or weed control at 1000 g/ha of each entry?
Report the figure along with its unit, number first.

// pest or weed control at 1000 g/ha lookup, key: C=Cc1c(NCc2ccccc2Cl)cc(Cl)nc1C(=O)OC [Compound 3-12]
0%

// pest or weed control at 1000 g/ha lookup, key: C=Cc1c(NCc2ccccc2OC)cc(Cl)nc1C(=O)OC [Compound 73-12]
20%

// pest or weed control at 1000 g/ha lookup, key: COC(=O)c1nc(Cl)cc(NCc2ncccc2Cl)c1Br [Compound 32-17]
0%

// pest or weed control at 1000 g/ha lookup, key: C=Cc1c(NCc2ccccc2C)cc(Cl)nc1C(=O)OC [Compound 9-12]
10%

---

System: Solanum nigrum (SOLNI)
Experiment: Post-emergence biological efficacy, glasshouse pot test
Type: in vivo
Details: 312 h, 1,000 g/ha, evaluated after 13 days, 100=total damage, 0=no damage, read-out: Percentage damage caused to weed species, post-emergence, SOLNI
READOUT_NAME: pest or weed control at 1000 g/ha (%)
Answer in %, number only, no unit symbol.

// pest or weed control at 1000 g/ha lookup, key: COC(=O)c1nc(Cl)cc(NCc2ccccc2Br)c1Cl [Compound 72-2]
100

// pest or weed control at 1000 g/ha lookup, key: COC(=O)c1nc(Cl)cc(NCc2ccccc2[N+](=O)[O-])c1Cl [Compound 15-2]
100

// pest or weed control at 1000 g/ha lookup, key: COC(=O)c1nc(Cl)cc(NCc2cc(C)nn2C)c1Cl [Compound 77-2]
100

// pest or weed control at 1000 g/ha lookup, key: COC(=O)c1nc(Cl)cc(NCC2CC2)c1Cl [Compound 1-2]
90

// pest or weed control at 1000 g/ha lookup, key: COC(=O)c1nc(Cl)cc(NCc2ccc(Cl)cc2)c1Cl [Compound 5-2]
100

// pest or weed control at 1000 g/ha lookup, key: COC(=O)c1nc(Cl)cc(N(CCO)Cc2ccco2)c1Cl [Compound 66-2]
80

// pest or weed control at 1000 g/ha lookup, key: C=Cc1c(NCc2ccco2)cc(Cl)nc1C(=O)OC [Compound 26-12]
100

// pest or weed control at 1000 g/ha lookup, key: C=Cc1c(NCc2c(Cl)cccc2Cl)cc(Cl)nc1C(=O)OC [Compound 21-12]
80

// pest or weed control at 1000 g/ha lookup, key: C=Cc1c(NCc2ccccc2)cc(Cl)nc1C(=O)OC [Compound 2-12]
100

// pest or weed control at 1000 g/ha lookup, key: COC(=O)c1nc(Cl)cc(NCc2ccccn2)c1Cl [Compound 31-2]
100

---

Test system: Amaranthus retroflexus (AMARE)
Experiment: Post-emergence biological efficacy, glasshouse pot test
Format: in vivo
Settings: 312 h, 1,000 g/ha, evaluated after 13 days, 100=total damage, 0=no damage, read-out: Percentage damage caused to weed species, post-emergence, AMARE
READOUT_NAME: pest or weed control at 1000 g/ha (%)
Answer in %, number only, no unit symbol.

Short answer please: pest or weed control at 1000 g/ha, Amaranthus retroflexus (AMARE), entry COC(=O)c1nc(Cl)cc(NCc2ccncc2)c1Cl [Compound 80-2]
90

Short answer please: pest or weed control at 1000 g/ha, Amaranthus retroflexus (AMARE), entry COC(=O)c1nc(Cl)cc(NCC2CCCCC2)c1Cl [Compound 67-2]
100

Short answer please: pest or weed control at 1000 g/ha, Amaranthus retroflexus (AMARE), entry C=Cc1c(NCc2ccccc2C(F)(F)F)cc(Cl)nc1C(=O)OC [Compound 74-12]
100

Short answer please: pest or weed control at 1000 g/ha, Amaranthus retroflexus (AMARE), entry C=Cc1c(NCc2ccc(N(C)C)cc2)cc(Cl)nc1C(=O)OC [Compound 14-12]
100

Short answer please: pest or weed control at 1000 g/ha, Amaranthus retroflexus (AMARE), entry COC(=O)c1nc(Cl)cc(NCc2ccc3c(c2)OCO3)c1Cl [Compound 24-2]
100
